Observed IC50 values for PI3K alpha (p110α) (Homo sapiens, UniProt P42336) are listed in what follows.

Known results for molecules:
FC(F)c1nc2ccccc2n1-c1nc(N[C@@H]2CCCc3ccccc32)nc(N2CCOCC2)n1 [Compound A3] :: > 500 nM
FC(F)c1nc2ccccc2n1-c1nc(NC2CCCc3ccccc32)nc(N2CCOCC2)n1 (centres unmarked) [Compound A1] :: > 500 nM
FC(F)c1nc2ccccc2n1-c1nc(NCc2ccccc2)nc(N2CCOCC2)n1 [Ref. 1, reference compound] :: 100 to 200 nM
FC(F)c1nc2ccccc2n1-c1nc(NC2CCc3ccccc32)nc(N2CCOCC2)n1 (centres unmarked) [Compound A4] :: > 500 nM

Q: Quick check: IC50 of COc1ccc2c(c1)CCC2Nc1nc(N2CCOCC2)nc(-n2c(C(F)F)nc3ccccc32)n1 (centres unmarked) [Compound A9] ?
Ans: > 500 nM
